protocol_text: Pharmacokinetic test in rats after intragastric administration (LC/MS/MS of plasma)
Type: in vivo, Sprague-Dawley (SD) rats
condition_notes: both sexes, Sprague-Dawley, rat, plasma, po, SD rats, protocol 10.0 mg/kg, read-out: Apparent Distribution Volume Vz/F
Description: Rats were used as test animals. A LC/MS/MS method was used to determine drug concentration in plasma at different time points after the rats were administered the compounds of Examples 3, 22 and 28 intragastrically. The pharmacokinetic behavior of the compounds of the present invention was studied and evaluated in rats. Eight healthy adult Sprague-Dawley (SD) rats, half male and half female, were divided into 2 groups with 4 rats in each group. […]
Entries and their measured Vd/F follow.

[
  {
    "structure_string": "Cn1cc(-c2ccc3nnc(Sc4ccc5ncc(N6CCOCC6)c(F)c5c4)n3c2)cn1",
    "Vd/F (L/kg)": 1.13
  },
  {
    "structure_string": "Cn1cc(-c2cc(F)c3nnc(Sc4ccc5ncc6c(c5c4)OCCO6)n3c2)cn1",
    "Vd/F (L/kg)": 0.667
  },
  {
    "structure_string": "CN1C(=O)COc2c1cnc1ccc(Sc3nnc4c(F)cc(-c5cnn(C)c5)cn34)cc21",
    "Vd/F (L/kg)": 0.327
  }
]
